Attribution: patent US20240391954A1

target: human MC4R receptor (human, UniProt P32245 1-332); experiment: cell-based or functional assay
Sequence (P32245 whole entry): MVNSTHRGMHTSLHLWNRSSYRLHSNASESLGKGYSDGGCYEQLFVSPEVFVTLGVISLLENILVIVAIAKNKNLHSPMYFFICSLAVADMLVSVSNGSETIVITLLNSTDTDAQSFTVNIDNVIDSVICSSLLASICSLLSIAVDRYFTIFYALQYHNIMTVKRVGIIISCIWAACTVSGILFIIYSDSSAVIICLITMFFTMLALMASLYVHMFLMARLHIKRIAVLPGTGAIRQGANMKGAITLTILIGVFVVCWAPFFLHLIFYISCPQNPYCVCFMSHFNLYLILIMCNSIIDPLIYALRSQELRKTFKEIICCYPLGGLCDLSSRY
Positions of bridges follow the written chain, without caps; N, C: chain ends. Non-standard residues stand in square brackets, D forms with d. NMeW = CN[C@@H](Cc1c[nH]c2ccccc12)C(=O)O; dPhe(4-Br) = N[C@H](Cc1ccc(Br)cc1)C(=O)O; 1Nal = N[C@@H](Cc1cccc2ccccc12)C(=O)O; d2Nal = N[C@H](Cc1ccc2ccccc2c1)C(=O)O; NMeH = CN[C@@H](Cc1c[nH]cn1)C(=O)O; NMeR = CN[C@@H](CCCNC(=N)N)C(=O)O; 2Pal = N[C@@H](Cc1ccccn1)C(=O)O; 3Pal = N[C@@H](Cc1cccnc1)C(=O)O; Cit = NC(=O)NCCC[C@H](N)C(=O)O; Nle = CCCC[C@H](N)C(=O)O; Aib = CC(C)(N)C(=O)O
Please respond with class 1 when measured cAMP EC50 is strictly beneath 20 nM, and with class 0 in all other cases.

In plain terms, does Ac-RC[Aib][3Pal][dF]RFC-NH2 (disulfide 2-8; SMILES CC(=O)N[C@@H](CCCNC(=N)N)C(=O)N[C@H]1CSSC[C@@H](C(N)=O)NC(=O)[C@H](Cc2ccccc2)NC(=O)[C@H](CCCNC(=N)N)NC(=O)[C@@H](Cc2ccccc2)NC(=O)[C@H](Cc2cccnc2)NC(=O)C(C)(C)NC1=O) [CTX-1605] come in under 20 nM for cAMP EC50?
class 0

Please check: cAMP EC50 for {CH2CO}-[dA][Cit][dF]RFC-NH2 (thioether N-6) [CTX-1658] , strictly under 20 nM or not?
class 0

Find out if reported cAMP EC50 for Ac-RCAR[dF]R[dW]C-NH2 (disulfide 2-8) [CTX-1268] is less than 20 nM
class 1

Identify whether the binder Ac-RC[dA]R[dF]R[d2Nal]C-NH2 (disulfide 2-8) [CTX-1264] records cAMP EC50 below 20 nM.
class 1

is_below(cAMP EC50, 20 nM) for Ac-RC[Aib][Cit][dF]R[dW]C-NH2 (disulfide 2-8) [CTX-1290] ?
class 0

Consider the binder Ac-R[Nle]CR[dPhe(4-Br)]RFC-NH2 (disulfide 3-8; SMILES CCCC[C@H](NC(=O)[C@H](CCCNC(=N)N)NC(C)=O)C(=O)N[C@H]1CSSC[C@@H](C(N)=O)NC(=O)[C@H](Cc2ccccc2)NC(=O)[C@H](CCCNC(=N)N)NC(=O)[C@@H](Cc2ccc(Br)cc2)NC(=O)[C@H](CCCNC(=N)N)NC1=O) [CTX-1623] . Is its cAMP EC50 strictly less than 20 nM?
class 1

I wonder whether {CH2CO}-[dA][NMeH][dF]R[NMeW]C-NH2 (thioether N-6; SMILES C[C@H]1NC(=O)CSC[C@@H](C(N)=O)NC(=O)[C@H](Cc2c[nH]c3ccccc23)N(C)C(=O)[C@H](CCCNC(=N)N)NC(=O)[C@@H](Cc2ccccc2)NC(=O)[C@H](Cc2c[nH]cn2)N(C)C1=O) [CTX-1203] has cAMP EC50 below 20 nM. Can you tell?
class 1

# check: cAMP EC50 < 20 nM for Ac-RCA[Cit][dF]R[dW]C-NH2 (disulfide 2-8) [CTX-1288]
class 0

Problem: For the binder Ac-R[Nle]CH[1Nal]RWC-NH2 (disulfide 3-8; SMILES CCCC[C@H](NC(=O)[C@H](CCCNC(=N)N)NC(C)=O)C(=O)N[C@H]1CSSC[C@@H](C(N)=O)NC(=O)[C@H](Cc2c[nH]c3ccccc23)NC(=O)[C@H](CCCNC(=N)N)NC(=O)[C@H](Cc2cccc3ccccc23)NC(=O)[C@H](Cc2c[nH]cn2)NC1=O) [CTX-1610] , is cAMP EC50 under 20 nM?
class 0

Problem: For the binder Ac-RC[Aib][2Pal][dF]RFC-NH2 (disulfide 2-8; SMILES CC(=O)N[C@@H](CCCNC(=N)N)C(=O)N[C@H]1CSSC[C@@H](C(N)=O)NC(=O)[C@H](Cc2ccccc2)NC(=O)[C@H](CCCNC(=N)N)NC(=O)[C@@H](Cc2ccccc2)NC(=O)[C@H](Cc2ccccn2)NC(=O)C(C)(C)NC1=O) [CTX-1604] , is cAMP EC50 under 20 nM?
class 0

Confirm or reject: cAMP EC50 of {CH2CO}-[dA][Cit][dF]RWC-NH2 (thioether N-6; SMILES C[C@H]1NC(=O)CSC[C@@H](C(N)=O)NC(=O)[C@H](Cc2c[nH]c3ccccc23)NC(=O)[C@H](CCCNC(=N)N)NC(=O)[C@@H](Cc2ccccc2)NC(=O)[C@H](CCCNC(N)=O)NC1=O) [CTX-1643] lies strictly below 20 nM
class 1

# strict comparison: is reported cAMP EC50 < 20 nM? input = Ac-RC[dA]R[dF][NMeR][dW]C-NH2 (disulfide 2-8; SMILES CC(=O)N[C@@H](CCCNC(=N)N)C(=O)N[C@H]1CSSC[C@@H](C(N)=O)NC(=O)[C@@H](Cc2c[nH]c3ccccc23)NC(=O)[C@H](CCCNC(=N)N)N(C)C(=O)[C@@H](Cc2ccccc2)NC(=O)[C@H](CCCNC(=N)N)NC(=O)[C@@H](C)NC1=O) [CTX-1284]
class 0

Determine whether this binder shows cAMP EC50 lower than 20 nM (ties excluded): Ac-RCGR[dF]RWC-NH2 (disulfide 2-8; SMILES CC(=O)N[C@@H](CCCNC(=N)N)C(=O)N[C@H]1CSSC[C@@H](C(N)=O)NC(=O)[C@H](Cc2c[nH]c3ccccc23)NC(=O)[C@H](CCCNC(=N)N)NC(=O)[C@@H](Cc2ccccc2)NC(=O)[C@H](CCCNC(=N)N)NC(=O)CNC1=O) [CTX-1293]
class 1

Determine whether this binder shows cAMP EC50 lower than 20 nM (ties excluded): Ac-RCAR[dF]RWC-NH2 (disulfide 2-8; SMILES CC(=O)N[C@@H](CCCNC(=N)N)C(=O)N[C@H]1CSSC[C@@H](C(N)=O)NC(=O)[C@H](Cc2c[nH]c3ccccc23)NC(=O)[C@H](CCCNC(=N)N)NC(=O)[C@@H](Cc2ccccc2)NC(=O)[C@H](CCCNC(=N)N)NC(=O)[C@H](C)NC1=O) [CTX-1267]
class 1
